Data provenance is the Deep4Chem optical property database.

procedureSummary: photoluminescence quantum yield (fraction); solvent given as SMILES
experimentalSetup: in ClCCl
Please use the following photoluminescence quantum yield ranges when assigning a class: LOW (below 0.1), MID (0.1 to below 0.5), HIGH (0.5 or more)

>>> labelvalue("O=C(Nc1ccccc1[N+](=O)[O-])c1ccc2oc(-c3cc4ccccc4oc3=O)nc2c1")
"MID"
>>> labelvalue("C(#Cc1ccc2c(c1)c1cc(C#Cc3ccccc3)ccc1n2-c1cc2ccccc2c2ccccc12)c1ccccc1")
"MID"
>>> labelvalue("Cc1cccc(-c2c3ccccc3cc3ccccc23)n1")
"MID"
>>> labelvalue("FC(F)(F)c1ccc(-c2ccc(-c3cc(-c4ccccn4)nc(-c4ccccn4)c3)cc2)cc1")
"MID"
>>> labelvalue("COc1cn2cc(-c3ccc(C#N)cc3)[n-][n+]2c1")
"HIGH"
>>> labelvalue("CON(OC)c1cc2c3cc(-c4c(C)cc(C)cc4C)cc4c5cc(-c6c(C)cc(C)cc6C)cc6c7cc(B(c8c(C)cc(C)cc8C)c8c(C)cc(C)cc8C)cc8c9cc(-c%10c(C)cc(C)cc%10C)cc%10c%11cc(-c%12c(C)cc(C)cc%12C)cc%12c(c1)c2c1c(c43)c(c65)c(c78)c(c9%10)c1c%11%12")
"HIGH"
>>> labelvalue("COc1ccc2c(c1)c1c(c3cc(OC)ccc32)=[N+]2C(=C(c3c(C)cc(C)cc3C)c3cc4c5cc(OC)ccc5c5ccc(OC)cc5c4n3[B-]2(F)F)C=1")
"LOW"
>>> labelvalue("Oc1c(-c2cccs2)cccc1-c1nc2ccccc2s1")
"LOW"

====

# photoluminescence quantum yield annotations
procedureSummary: photoluminescence quantum yield (fraction); solvent given as SMILES
experimentalSetup: in CC#N
propertyMeasured: photoluminescence quantum yield

>>> reportedvalue("Cc1cc(-c2ccc(C(C)(C)C)cc2)cc(C)[o+]1")
0.36
>>> reportedvalue("COC(=O)c1ccccc1C#Cc1ccccc1NC(C)=O")
0.0002
>>> reportedvalue("CCn1c2ccccc2c2cc(/C=C/c3cc(/C=C/c4ccc5c(c4)c4ccccc4n5CC)[n+](CCCS(=O)(=O)[O-])c(/C=C/c4ccc5c(c4)c4ccccc4n5CC)c3)ccc21")
0.05
>>> reportedvalue("COC(=O)C(NC(=O)OC(C)(C)C)c1ccc2oc(-c3cc(OC)ccc3OC)nc2c1 (centres undefined)")
0.35

====

procedureSummary: photoluminescence quantum yield (fraction); solvent given as SMILES
experimentalSetup: in CC(C)O
Please use the following photoluminescence quantum yield ranges when assigning a class: 0 = under 0.1, 1 = from 0.1 up to 0.4, 2 = 0.4 and over

>>> labelvalue("Nc1ccc2c(c1)C(=O)O/C2=C\\c1ccc(Cl)cc1")
1
>>> labelvalue("COc1nc(Nc2ccc3c4c(cccc24)C(=O)c2ccccc2-3)nc(OC)n1")
1
>>> labelvalue("CC(=O)Nc1ccc(/C=C2\\OC(=O)c3cc(N)ccc32)cc1")
0
>>> labelvalue("COC(=O)c1ccc(C#Cc2ccc(N(C)C)cc2)cc1")
0
>>> labelvalue("O=C([O-])c1ccccc1-c1c2cc(Br)c(=O)c(Br)c-2oc2c(Br)c([O-])c(Br)cc12")
2
>>> labelvalue("CN(C)c1ccc2nc(-c3ccc(C(=O)OC[C@H](NC(=O)OC(C)(C)C)C(=O)OCc4ccccc4)cc3)sc2c1")
2
>>> labelvalue("COCCOCCOCCOc1cc(C=O)c(OCCOCCOCCOC)cc1C=O")
1
>>> labelvalue("COCCOCCOCCOCCOc1ccc(OCCOCCOCCOCCOC)c(C=O)c1")
1

====

# photoluminescence quantum yield annotations
procedureSummary: photoluminescence quantum yield (fraction); solvent given as SMILES
experimentalSetup: in O
propertyMeasured: photoluminescence quantum yield

>>> reportedvalue("CCN(CC)c1ccc2c(c1)oc(=O)c1c(-c3ccccc3C(=O)O)c3ccc(=[N+](CC)CC)cc-3oc12")
0.01
>>> reportedvalue("[NH3+]c1cc([NH3+])cc(-c2nc3ccccc3s2)c1")
0.011
>>> reportedvalue("Nc1cccc[nH+]1")
0.64
>>> reportedvalue("Nc1cc([NH3+])cc(-c2nc3ccccc3s2)c1")
0.064
>>> reportedvalue("C=CCNc1ccc2ccc3oc4cc(=[N+]5CCCC5)ccc-4nc3c2c1")
0.006

====

# photoluminescence quantum yield annotations
procedureSummary: photoluminescence quantum yield (fraction); solvent given as SMILES
experimentalSetup: in O
propertyMeasured: photoluminescence quantum yield

>>> reportedvalue("Nc1ccc2c(c1)Cc1ccccc1-2")
0.2
>>> reportedvalue("CC[n+]1nc2cc3c4c(c2c2ccccc21)CCCN4CCC3")
0.25
>>> reportedvalue("Cc1cc2nc3cc(C)c(N)cc3[n+](-c3ccccc3)c2cc1N")
0.058
>>> reportedvalue("N#Cc1c(N2CCCCC2)cc(-c2ccc3c(c2)OCO3)c2c1-c1cccc3cccc-2c13")
0.3
>>> reportedvalue("CN(C)c1ccc2c(c1)C(C)(C)C(=O)C=C2")
0.13
>>> reportedvalue("CC[N+]1(CC)CN2C(=N1)C(C(=O)O)=Cc1ccc(C)cc12")
0.617
>>> reportedvalue("CNCCCN1c2ccccc2CCc2ccccc21")
0.012
>>> reportedvalue("O=C([O-])c1cc2c(ccc3ccccc32)oc1=O")
0.24
>>> reportedvalue("O=[N+]([O-])c1ccc(/C=C/c2c[nH]c3ccccc23)cc1")
0.024
>>> reportedvalue("COc1cc(C(=O)O)ccc1O")
0.03
>>> reportedvalue("Nc1n[n+]([O-])c2ccccc2[n+]1[O-]")
0.0033
>>> reportedvalue("CCN(CC)c1ccc2c(-c3ccc(S(=O)(=O)[O-])cc3S(=O)(=O)[O-])c3ccc(=[N+](CC)CC)cc-3oc2c1")
0.3
>>> reportedvalue("C[n+]1ccc(/C=C/c2ccc(N(c3ccccc3)c3ccc(/C=C/c4cc[n+](C)cc4)cc3)cc2)cc1")
0.08
>>> reportedvalue("O=C1NC(=O)/C(=C\\c2ccccc2O)S1")
0.011
>>> reportedvalue("Cc1nn(-c2ccccc2)c(C2=NN(c3ccc(Br)cc3)[C@@H](c3ccccc3)[C@@H]2c2ccccc2)c1C#N")
0.18

====

procedureSummary: photoluminescence quantum yield (fraction); solvent given as SMILES
experimentalSetup: in C1CCOC1
# photoluminescence quantum yield annotations
propertyMeasured: photoluminescence quantum yield

>>> reportedvalue("COc1ccc(/C=C/C(=O)c2ccccc2O)cc1OC")
0
>>> reportedvalue("COc1ccccc1C1=C2C(C)=CC(C)=[N+]2[B-](F)(F)n2c(C)cc(C)c21")
0.87
>>> reportedvalue("c1ccc(-c2nn(-c3ccccc3)c3nc4ccc(-n5c6ccccc6c6ccccc65)cc4cc23)cc1")
0.81
>>> reportedvalue("CCC1=C(C)C2=C(c3c(C)cc(C)nc3-c3cccs3)c3c(C)c(CC)c(C)n3[B-](F)(F)[N+]2=C1C")
0.46
>>> reportedvalue("O=[N+]([O-])c1ccc(NCCNCc2c3ccccc3cc3ccccc23)c([N+](=O)[O-])c1")
0.00044
>>> reportedvalue("CN(C)c1ccc2nc3c(cc2c1)c(-c1ccccc1)nn3-c1ccccc1")
0.62
>>> reportedvalue("O=P1(c2ccccc2)C(c2cc(C(F)(F)F)cc(C(F)(F)F)c2)=Cc2c3ccc4cccc5ccc(c6cc(-c7ccccc7)n1c26)c3c45 (stereo unspecified)")
0.61
>>> reportedvalue("O=C1c2cc(-c3ccccc3)ccc2-c2ccc(-c3ccccc3)cc21")
0.01
>>> reportedvalue("CN(C)c1ccc(C2=Cc3c4ccccc4cc[n+]3[B-](F)(F)O2)cc1")
0.658
>>> reportedvalue("F[B-]1(F)n2c(c3cccc4cccc2c43)=Nc2ccc3ccccc3[n+]21")
0.98
>>> reportedvalue("CCCCC(CC)CN1C(=O)c2cccc3c(C#Cc4ccc(N(c5ccc(C#Cc6ccc7c8c(cccc68)C(=O)N(CC(CC)CCCC)C7=O)cc5)c5ccc(C#Cc6ccc7c8c(cccc68)C(=O)N(CC(CC)CCCC)C7=O)cc5)cc4)ccc(c23)C1=O (stereo unspecified)")
0.027
>>> reportedvalue("COC(=O)c1ccc(C#Cc2ccc(N(C)C)cc2)cc1")
0.15
>>> reportedvalue("COc1cccc(C2=c3c(c4ccc(C(C)(C)C)cc4c4cc(C(C)(C)C)ccc34)=[N+]3C2=C(c2ccccc2)c2c(-c4cccc(OC)c4)c4c5ccc(C(C)(C)C)cc5c5cc(C(C)(C)C)ccc5c4n2[B-]3(F)F)c1")
0.5
>>> reportedvalue("Cc1ccc(-n2c(-c3ccccc3O)nc(-c3ccccc3O)c2-c2ccccc2O)cc1")
0.55
>>> reportedvalue("CCOC(=O)COc1ccc(/C=C/C2=C3c4ccccc4C(c4ccc[nH]4)=[N+]3[B-](F)(F)n3ccc(C)c32)cc1")
0.003
>>> reportedvalue("O=C1c2ccccc2C(=O)C1C1C(=O)c2c3ccccc3cc3cc4ccccc4c1c23 (stereo unspecified)")
0.294
>>> reportedvalue("CCn1c2ccccc2c2cc(/C=C/c3cc(/C=C/c4ccc5c(c4)c4ccccc4n5CC)[n+](CCCS(=O)(=O)[O-])c(/C=C/c4ccc5c(c4)c4ccccc4n5CC)c3)ccc21")
0.12
>>> reportedvalue("Cc1cc(C2=C(c3c(C)sc(-c4ccc(-c5nc(-c6ccccc6)c(-c6ccccc6)[nH]5)cc4)c3C)C(F)(F)C(F)(F)C2(F)F)c(C)s1")
0.077
>>> reportedvalue("COc1ccc(-c2cc3c4c(c2)CCc2cc(-c5ccc(OC)cc5)cc(c2-4)CC3)cc1")
0.76
>>> reportedvalue("CCOC(=O)COc1ccc(/C=C/c2cc(C)c3n2[B-](F)(F)[N+]2=C(c4[nH]c(C)cc4C)c4ccccc4C2=C3)cc1")
0.34
>>> reportedvalue("COc1cc(-c2nc3c4cccnc4c4ncccc4c3[nH]2)c(OC)cc1/C=C/c1nc2ccccc2[nH]1")
0.75
